Conditions: in ethyl acetate, 280.65 K
assayReadout: solubility (mole fraction)
Lab note: jot the number down without any unit.

Recorded solubility (mole fraction) for CC(C)c1ncc[nH]1 , please? 0.0556

* * *

Conditions: in toluene, 280.65 K
assayReadout: solubility (mole fraction)
Reply briefly: the number, and no unit.

Would you kindly share the measured solubility (mole fraction) for CC(C)c1ncc[nH]1 ? 0.0225

* * *

Details: in toluene, 305.65 K
assayReadout: solubility (mole fraction)
Keep it simple and answer with nothing but the number.

Form field: reported solubility (mole fraction) of CC(C)c1ncc[nH]1 0.0374

* * *

Conditions: in acetone, 310.65 K
assayReadout: solubility (mole fraction)
Answer with a number only.

Which measured solubility (mole fraction) value corresponds to CC(C)c1ncc[nH]1 ? 0.159
